B1: glmS ribozyme (parent)
chain: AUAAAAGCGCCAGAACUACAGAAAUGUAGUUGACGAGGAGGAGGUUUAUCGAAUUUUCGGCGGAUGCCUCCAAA

Variants of: B1
Test: self-cleavage kobs at 10000 uM GlcN6P; higher = faster cleavage; RNA array
Settings: with glucosamine-6-phosphate
Fewer inactive variants are shown than the library holds.
# self-cleavage kobs at 10000 uM GlcN6P annotations
property-label: self-cleavage kobs at 10000 uM GlcN6P (s⁻¹)

1) A14U G29A | 0.000665
2) C11U A15G A52G | 0.0001
3) U30A C70G | 8.03e-05
